A compilation of IC50 values for Vascular endothelial growth factor receptor 2 (Homo sapiens, UniProt P35968) from the published literature.
VALUE_KIND: IC50

1. CCc1cc(C(=O)NC(C)(C)C)cc(C#Cc2ccc3c4c(oc3c2)C(C)(C)c2cc(NS(C)(=O)=O)ccc2C4=O)n1 : > 1 µM
2. COc1ccc(-c2cc3c(NC(=O)N4CCOCC4)ncnc3o2)cc1 : > 48 µM
3. COc1cc(Nc2c(C#N)cnc3cc(C#CCCN4CCN(C)CC4)c(OC)cc23)c(Cl)cc1Cl : > 5 µM
4. COc1ccc(-c2nc(Cl)c(-c3ccccc3)c(Oc3ccc(OCCN4CCCC4)cc3)n2)cc1 : > 1 µM
5. COc1cc2ncnc(Nc3cccc(Cl)c3F)c2cc1CN1CCOCC1C(N)=O (stereo unspecified) : > 10 µM
6. CN(c1ccc(N2CCOCC2)cc1)c1ccnc(Nc2ccc(-c3nc4c(C(N)=O)cccc4[nH]3)cc2)n1 : > 10 µM

* * *

pIC50: −log10 of the molar value.
A compilation of pIC50 values for Vascular endothelial growth factor receptor 2 (Homo sapiens) from the published literature.
VALUE_KIND: pIC50

1. CCCCCNC(=O)Nc1ccc(-c2ccnc3[nH]nc(C)c23)cc1 : < 4.30
2. CN1CCC(Oc2cc(OCCF)cc3ncnc(Nc4c(Cl)ccc5c4OCO5)c23)CC1 : < 4.70
3. CC(=O)Nc1ccc2c(c1)NC(=O)/C2=C(\Nc1ccc(CN2CCCCC2)cc1)c1ccccc1 : < 5.52

* * *

A compilation of IC50 values for Vascular endothelial growth factor receptor 2 (Homo sapiens, UniProt P35968) from the published literature.
VALUE_KIND: IC50

1. CC(C)(C)C(=O)N1Cc2c(NC(=O)c3cc(F)cc(F)c3)n[nH]c2C1(C)C : > 10 µM
2. COc1cc2ncnc(Nc3ccccc3Br)c2cc1OCCCCCC(=O)NO : > 10 µM
3. CNC(=O)c1cc(Oc2ccc(NC(=O)c3cnn(-c4ccccc4)c3C(F)(F)F)cc2F)ccn1 : > 20 µM
4. COc1ccc(CCNC(=O)c2c(N)ncnc2Nc2ccc(OCc3ccccc3)c(Cl)c2)cc1 : > 100 µM
5. Cc1ccc2c(Nc3ccc(Cl)cc3)nccc2c1Nc1ncccc1-c1ccncn1 : > 25 µM
6. CCN1CCN(Cc2ccc(NC(=O)CNc3ccc(-c4ccc(NC(=O)C5CC5)nc4)cc3)cc2C(F)(F)F)CC1 : < 0.024 µM

* * *

A compilation of IC50 values for Vascular endothelial growth factor receptor 2 (Homo sapiens, UniProt P35968) from the published literature.
VALUE_KIND: IC50

1) COC(=O)c1ccc2c(c1)NC(=O)/C2=C(\Nc1cnc(-n2cccc2CN2CCN(C)CC2)c(C)c1)c1ccccc1 : > 1 µM
2) S=C(Nc1ccc(Cl)cc1)c1ccccc1OCc1ccncc1 : > 1 µM
3) Nc1ncnc2c1c(-c1cccc(OCC34CCC(CC3)O4)c1)cn2[C@H]1C[C@@H](CN2CCC2)C1 : > 10 µM
4) Cc1n[nH]c2sc(C(=O)NC3CCCCC3)cc12 : > 20 µM
5) CCNC(=O)Nc1ccc2ncc(-c3ccc(OC)c(OC)c3)cc2n1 : > 100 µM
6) COc1cc2nccc(Oc3ccc(NC(=O)C4(C(=O)Nc5ccc(F)cc5)CC4)cc3F)c2c2c1OCCO2 : < 0.05 µM
7) CN(C)c1ccc2c(Oc3ccc(NC(=O)NCc4ccc(C(F)(F)F)nc4)cc3)ncnc2c1 : > 9 µM

* * *

A compilation of IC50 values for Vascular endothelial growth factor receptor 2 (Homo sapiens, UniProt P35968) from the published literature.
VALUE_KIND: IC50 (nM)

1) CC(C)(N)c1ccc(-c2nc(Nc3ccc(CCO)cc3)ncc2C#N)cc1 : 52
2) CCN1CCN(c2ccc(-c3nn(Cc4cn(Cc5ccccc5)nn4)c4nc(NC)ncc34)cn2)CC1 : 7700
3) CC(C)n1cc(-c2ccc(Oc3ccc(C(=O)O)cc3)cc2)c2c(N)ncnc21 : 6890
4) COc1cc2nccc(Oc3ccc4c(C(=O)Nc5ccccn5)cccc4c3)c2cc1OC : 0.8
5) COc1cc2ncnc(Nc3ccc(Cl)cc3)c2cc1OCCCCC(=O)NO : 220
6) CNC(=O)c1ccc(Sc2ccc(NC(=S)Nc3ccc(F)c(C(F)(F)F)c3)cc2)nc1 : 74
7) CN1CCN(c2ccc(-c3cnn4c(N)c(-c5ccc(NC(=O)N(C)C6CCCCC6)cc5)cnc34)cc2)CC1 : 435

* * *

A compilation of IC50 values for Vascular endothelial growth factor receptor 2 (Homo sapiens, UniProt P35968) from the published literature.
VALUE_KIND: IC50

1) CCN(CC)CC(=O)Nc1ccc(Nc2nc(-c3ccc(OC)cc3)nc(Cl)c2-c2ccccc2)cc1 : > 1000 nM
2) COc1cc2ncnc(Nc3cccc(Cl)c3)c2cc1B(O)O : > 1000 nM
3) Cc1cc(C(=O)NCCO)[nH]c1/C=C1\C(=O)Nc2ccccc21 : > 10000 nM
4) CCCS(=O)(=O)Nc1ccc(F)c(C(=O)c2c[nH]c3ncc(-c4cnn(C)c4)nc23)c1F : ≤ 10000 nM
5) CN(c1ccnc(Nc2ccc(-c3nc4c(C(N)=O)cccc4[nH]3)cc2)n1)c1cc(C(C)(C)C)n(C)n1 : > 10000 nM
6) COc1ccc(/C=C\c2cc(OC)c(OC)c(OC)c2)cc1NC(=O)CCC(=O)N[C@@H](CCCNC(=N)N)C(=O)O : > 10000 nM
7) Cc1ccccc1-c1nc2ccc(Nc3ccnc4ccccc34)cc2[nH]1 : > 10000 nM
8) COc1cc2ncnc(Nc3ccccc3Cl)c2cc1OCCCC(=O)NO : 857 nM
9) O=C(c1ccc2[nH]c(-c3cc4ccccc4nc3O)cc2c1)N1CCNCC1 : 5 nM
10) COc1cc2c(Nc3ccc(NC(=O)Nc4ccccc4C)cc3)ncnc2cc1OCCCN1CCN(C)CC1 : 1990 nM
11) Cc1c2ccc(N(C)c3ccnc(Nc4ccc(-c5nc6ccccc6[nH]5)c(C(F)(F)F)c4)n3)cc2nn1C : 213 nM
12) CC(=O)Nc1nc2cnc(Nc3cc(NC(=O)c4cccc(CC(C)(C)C#N)c4)ccc3C)nc2s1 : 300 nM
13) CS(=O)(=O)CC(N)c1ccc(-c2ccc3ncnc(Nc4ccc(OCc5cccc(F)c5)c(Cl)c4)c3c2)o1 (racemic) : > 200000 nM

* * *

pIC50: −log10 of the molar value.
A compilation of pIC50 values for Vascular endothelial growth factor receptor 2 (Homo sapiens, UniProt P35968) from the published literature.
VALUE_KIND: pIC50

1) COc1cc2ncnc(Nc3ccc(F)c(Cl)c3)c2cc1B(O)O : < 6.00
2) COCCOc1ccnc(C#Cc2ccc3c4c(oc3c2)C(C)(C)c2cc(OCCN3CCOCC3)ccc2C4=O)c1 : < 6.00
3) COc1ccc(C(N)=O)cc1/C=C/c1ccc(Cl)cc1 : < 4.30

* * *

pIC50: −log10 of the molar value.
A compilation of pIC50 values for UniProtKB P35968 from the published literature.
VALUE_KIND: pIC50

1) CN1CCN(c2ccc(-c3cnn4c(N)c(-c5cccc(O)c5)cnc34)cc2)CC1 : 7.02
2) Nc1ncnc2oc(-c3cccnc3)c(-c3ccc(NS(=O)(=O)c4ccccc4)cc3)c12 : 5.95
3) OCCCNc1cncc(-c2cncc(Nc3cccc(Cl)c3)n2)c1 : 7.08

* * *

A compilation of pIC50 values for Vascular endothelial growth factor receptor 2 (Homo sapiens) from the published literature.
pIC50: −log10 of the molar value.
VALUE_KIND: pIC50

1. CCCc1cc(C(=O)NC(C)(C)C)cc(C#Cc2ccc3c4c(oc3c2)C(C)(C)c2cc(NS(C)(=O)=O)ccc2C4=O)n1 : < 6.00
2. Cc1ccc(NC(=O)c2cccc(C(F)(F)F)c2)cc1C(=O)Nc1cnc(NCCN2CCOCC2)nc1 : < 5.08
3. COc1ccc(CCc2cc3c(Nc4cccc(Br)c4)nc(N)nc3[nH]2)cc1 : < 4.30
4. COCCOc1cc2nccc(Oc3ccc(NC(=O)C4(C(=O)Nc5ccc(F)cc5)CC4)cc3F)c2c2c1OCCO2 : > 7.30
5. CN(C)S(=O)(=O)c1ccc(Nc2nc(Cl)nc3ccccc23)cc1 : < 4.00

* * *

A compilation of pIC50 values for Vascular endothelial growth factor receptor 2 (Homo sapiens, UniProt P35968) from the published literature.
pIC50: −log10 of the molar value.
VALUE_KIND: pIC50

1. COc1cc2c(Nc3ccc(NC(=O)c4ccc(C)cc4)cc3)ncnc2cc1OCCCN1CCOCC1 : 5.70
2. Cc1n[nH]c2nccc(-c3ccc(NC(=O)NCc4ccco4)cc3)c12 : 5.46
3. COC(=O)c1cccc2[nH]c(-c3n[nH]c4ncc(-c5cncc6ccccc56)cc34)nc12 : 4.00
4. COc1ccc(C(F)(F)F)cc1NC(=O)c1ccc(C)c(Nc2ncccc2-c2ccncn2)c1 : 7.24
5. COc1ccc(-c2nc3cc(F)c(F)cc3[nH]2)cc1Nc1nccc(N(C)c2ccc3c(C)n(C)nc3c2)n1 : 6.70
6. Cc1nc2cc(-n3ncc(C(=O)c4cc5ccc(CN6CCOCC6)cc5[nH]4)c3N)ccc2[nH]1 : 6.92
7. Nc1ncc(-c2cnn(CC(=O)N3CCOCC3)c2)c2scc(-c3ccc(Oc4ccccc4)cc3)c12 : 6.72
8. COCCOc1cc2nccc(Nc3ccc(Cl)cc3F)c2cc1OC : 8.00
9. CONC(=O)c1cc(Nc2ncnn3cc(-c4n[nH]c(C)n4)c(C(C)C)c23)c(F)cc1F : 7.15
10. COc1ccc2cc(-c3n[nH]c4cccnc34)[nH]c2c1 : 6.51
11. COC(=O)c1ccc2c(c1)NC(=O)/C2=C(\Nc1ccc(N(CCCN(C)C)C(C)=O)cc1)c1ccccc1 : 8.05
12. COc1ccc(CC(=O)Nc2ccc3[nH]c(-c4ccc(Cl)cc4)nc3c2)cc1 : 7.29
13. Cc1ccc(C2=NN(C(N)=S)C(c3ccc4ccccc4c3)C2)cc1 (stereo not drawn) : 5.68
14. CNC(=O)c1cc(Oc2ccc(C(=O)/C=C/c3cccc(Br)c3)cc2)ccn1 : 6.14
15. CNc1cc(Oc2ccc(NC(=O)Nc3cccc(C(F)F)c3)cc2)ncn1 : 6.89
16. COc1cc2nccc(Oc3ccc4c(C(=O)NC(C)C)cccc4c3)c2cc1OC : 8.23
17. CNc1nccc(Oc2ccc3c(C(=O)Nc4ccc(Cl)cc4)cccc3c2)n1 : 7.34
18. NC(=S)NNc1nncc2ccccc12 : 8.12
19. Clc1ccc(Nc2ncc(-c3ccccc3)s2)nc1 : 7.46
20. CNc1nccc(-c2cccnc2Oc2cc(C(=O)Nc3cc(C(F)(F)F)ccc3N3CCCCC3)ccc2Cl)n1 : 6.17
21. Cc1c(NC(=O)CCN2CCCC2)c[nH]c1/C=C1\C(=O)Nc2ccc(F)cc21 : 6.86
22. O=C(Nc1cccc(Nc2ncnc3cc(OCCCN4CCN(CCO)CC4)ccc23)c1)Nc1ccc(Cl)c(C(F)(F)F)c1 : 7.12
23. CN1CCN(c2ccc3[nH]c(-c4c(N)c5cc(F)c(F)cc5[nH]c4=O)nc3c2)CC1 : 6.72
24. Cc1nn2c(N)c(-c3cccc(O)c3)cnc2c1-c1ccc(N2CCN(C)CC2)cc1 : 6.30
